Procedure details: Chemical stability of compound in DMF at 5 x 10^-5 M incubated for 72 hrs by spectrometric analysis
Assay type: physicochemical
Measurement context: 50 µM
Metric name: Stability

See these solved cases before continuing.
O=c1cc(Cn2cc(Cn3c(=O)n(Cc4cn(Cc5cc(=O)oc6c5ccc5ccccc56)nn4)c4ccccc43)nn2)c2ccc3ccccc3c2o1 :: Unstable
Cc1cccc2c(Cn3cc(Cn4c(=O)n(Cc5cn(Cc6cc(=O)[nH]c7c(C)cccc67)nn5)c5ccccc54)nn3)cc(=O)[nH]c12 :: Unstable
O=c1cc(Cn2cc(Cn3c(=O)n(Cc4cn(Cc5cc(=O)oc6ccc(Cl)cc56)nn4)c4ccccc43)nn2)c2cc(Cl)ccc2o1 :: Unstable
Cc1cc(C)c2c(Cn3cc(Cn4c(=O)n(Cc5cn(Cc6cc(=O)oc7cc(C)cc(C)c67)nn5)c5ccccc54)nn3)cc(=O)oc2c1 :: Unstable
Cc1ccc2c(Cn3cc(Cn4c(=O)n(Cc5cn(Cc6cc(=O)oc7cc(C)ccc67)nn5)c5ccccc54)nn3)cc(=O)oc2c1 :: Unstable

Input line: Would you mind telling me what Stability value was observed for O=c1cc(Cn2cc(Cn3c(=O)n(Cc4cn(Cc5cc(=O)oc6ccc7ccccc7c56)nn4)c4ccccc43)nn2)c2c(ccc3ccccc32)o1 ?
Output line: Unstable

Input line: Also check O=c1cc(Cn2cc(Cn3c(=O)n(Cc4cn(Cc5cc(=O)[nH]c6ccccc56)nn4)c4ccccc43)nn2)c2ccccc2[nH]1
Output line: Unstable

Input line: # iterate: Cc1ccc2c(Cn3cc(Cn4c(=O)n(Cc5cn(Cc6cc(=O)oc7c(C)c(C)ccc67)nn5)c5ccccc54)nn3)cc(=O)oc2c1C
Output line: Unstable

Input line: Same read-out for O=c1cc(Cn2cc(Cn3c(=O)n(Cc4cn(Cc5cc(=O)[nH]c6cc(Cl)ccc56)nn4)c4ccccc43)nn2)c2ccc(Cl)cc2[nH]1 ?
Output line: Unstable

Input line: Then Cc1ccc2oc(=O)cc(Cn3cc(Cn4c(=O)n(Cc5cn(Cc6cc(=O)oc7ccc(C)cc67)nn5)c5ccccc54)nn3)c2c1 ?
Output line: Unstable

Input line: Same read-out for O=c1cc(Cn2cc(Cn3c(=O)n(Cc4cn(Cc5cc(=O)[nH]c6ccc(Cl)cc56)nn4)c4ccccc43)nn2)c2cc(Cl)ccc2[nH]1 ?
Output line: Unstable

Input line: Entry to check: COc1ccc2c(Cn3cc(Cn4c(=O)n(Cc5cn(Cc6cc(=O)oc7cc(OC)ccc67)nn5)c5ccccc54)nn3)cc(=O)oc2c1
Output line: Unstable

Input line: How about this compound: COc1ccc2oc(=O)cc(Cn3cc(Cn4c(=O)n(Cc5cn(Cc6cc(=O)oc7ccc(OC)cc67)nn5)c5ccccc54)nn3)c2c1
Output line: Unstable

Input line: Entry to check: CC(C)c1ccc2oc(=O)cc(Cn3cc(Cn4c(=O)n(Cc5cn(Cc6cc(=O)oc7ccc(C(C)C)cc67)nn5)c5ccccc54)nn3)c2c1
Output line: Unstable

###

Procedure details: Chemical stability of compound in pH 6 to 8 buffer at 5 x 10^-5 M incubated for 24 hrs by spectrometric analysis
Type: physicochemical
Measurement context: pH 6, 24 h, 50 µM
Metric name: Stability

CC(C)c1ccc2oc(=O)cc(Cn3cc(Cn4c(=O)n(Cc5cn(Cc6cc(=O)oc7ccc(C(C)C)cc67)nn5)c5ccccc54)nn3)c2c1 :: Stable
Cc1cccc2c(Cn3cc(Cn4c(=O)n(Cc5cn(Cc6cc(=O)[nH]c7c(C)cccc67)nn5)c5ccccc54)nn3)cc(=O)[nH]c12 :: Stable
O=c1cc(Cn2cc(Cn3c(=O)n(Cc4cn(Cc5cc(=O)oc6c5ccc5ccccc56)nn4)c4ccccc43)nn2)c2ccc3ccccc3c2o1 :: Stable

// provenance: ChEMBL document CHEMBL4396954
